- System Under Test: Cholecystokinin receptor type A (Homo sapiens, UniProt P32238); further: in other assays of this panel Not Active means under 50% inhibition at 10 µM
- Sequence (P32238 whole entry): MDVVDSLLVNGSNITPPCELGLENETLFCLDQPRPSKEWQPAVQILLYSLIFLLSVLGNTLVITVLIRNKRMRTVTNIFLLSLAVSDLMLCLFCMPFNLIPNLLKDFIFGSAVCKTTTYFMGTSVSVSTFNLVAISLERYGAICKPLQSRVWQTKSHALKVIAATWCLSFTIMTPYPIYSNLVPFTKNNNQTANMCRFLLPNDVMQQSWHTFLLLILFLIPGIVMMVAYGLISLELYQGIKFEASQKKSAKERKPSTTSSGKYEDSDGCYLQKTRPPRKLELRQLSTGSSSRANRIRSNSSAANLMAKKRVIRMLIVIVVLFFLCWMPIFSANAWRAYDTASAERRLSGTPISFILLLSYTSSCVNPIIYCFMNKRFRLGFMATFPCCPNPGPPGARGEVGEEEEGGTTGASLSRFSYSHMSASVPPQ
- Format: cell membranes, Membrane
- Run Parameters: 1321-n1
Measured Attribute: IC50

In the examples that follow, each entry is paired with its recorded IC50.
LEAD(IV) ACETATE    Not Active
POVIDONE    Not Active
CHROMIC CHLORIDE    Not Active
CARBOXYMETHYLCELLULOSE    Not Active

Switching to the query record.
The substance COPPER(II) OXIDE showed IC50 equal to Not Active

###

- System Under Test: Cytochrome P450 2A6 (Homo sapiens); further: in other assays of this panel Not Active means under 50% inhibition at 10 µM
- Sequence (P11509 whole entry): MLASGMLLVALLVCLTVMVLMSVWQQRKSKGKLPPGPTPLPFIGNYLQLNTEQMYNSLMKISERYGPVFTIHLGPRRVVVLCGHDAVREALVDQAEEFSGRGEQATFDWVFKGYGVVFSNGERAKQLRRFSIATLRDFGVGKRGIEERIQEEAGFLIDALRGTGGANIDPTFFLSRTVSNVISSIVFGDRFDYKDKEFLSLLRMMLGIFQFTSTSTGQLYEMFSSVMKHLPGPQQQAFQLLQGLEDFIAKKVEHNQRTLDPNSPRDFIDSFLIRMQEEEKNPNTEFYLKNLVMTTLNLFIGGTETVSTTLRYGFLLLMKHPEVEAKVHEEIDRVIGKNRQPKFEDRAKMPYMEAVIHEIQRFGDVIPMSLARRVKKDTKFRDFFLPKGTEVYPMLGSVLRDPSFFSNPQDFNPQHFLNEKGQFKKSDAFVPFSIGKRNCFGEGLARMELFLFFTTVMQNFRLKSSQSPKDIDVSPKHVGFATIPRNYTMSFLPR
- Run Parameters: bti-tn-5b1-4
Measured Attribute: Ki

O=C(NCCN1CCOCC1)c1ccc(Cl)cc1 [MOCLOBEMIDE]    Not Active
OC[C@H]1O[C@@H]2O[C@H]3[C@H](O)[C@@H](O)[C@@H](O[C@H]4[C@H](O)[C@@H](O)[C@@H](O[C@H]5[C@H](O)[C@@H](O)[C@@H](O[C@H]6[C@H](O)[C@@H](O)[C@@H](O[C@H]7[C@H](O)[C@@H](O)[C@@H](O[C@H]1[C@H](O)[C@H]2O)O[C@@H]7CO)O[C@@H]6CO)O[C@@H]5CO)O[C@@H]4CO)O[C@@H]3CO    Not Active

###

- Run Description: DRUGMATRIX: Leukotriene, BLT (LTB4) radioligand binding (ligand: [3H]LTB4)
- Format: cell membranes, Membrane
- Run Parameters: u-937; Not Active = under 50% inhibition at 10 µM; read-out: IC50
Measured Attribute: pIC50
When answering, recall that pIC50 equals minus log10 of the concentration in mol/L, and write that number alone.

c1ccc2sc(SSc3nc4ccccc4s3)nc2c1 [BENZOTHIAZYL DISULFIDE]    5.29

Switching to the query record.
The compound CCN(CC)C(=S)SSC(=S)N(CC)CC showed pIC50 equal to 4.52

###

- System Under Test: C-C chemokine receptor type 2 (Homo sapiens, UniProt P41597); further: in other assays of this panel Not Active means under 50% inhibition at 10 µM
- Sequence (P41597 whole entry): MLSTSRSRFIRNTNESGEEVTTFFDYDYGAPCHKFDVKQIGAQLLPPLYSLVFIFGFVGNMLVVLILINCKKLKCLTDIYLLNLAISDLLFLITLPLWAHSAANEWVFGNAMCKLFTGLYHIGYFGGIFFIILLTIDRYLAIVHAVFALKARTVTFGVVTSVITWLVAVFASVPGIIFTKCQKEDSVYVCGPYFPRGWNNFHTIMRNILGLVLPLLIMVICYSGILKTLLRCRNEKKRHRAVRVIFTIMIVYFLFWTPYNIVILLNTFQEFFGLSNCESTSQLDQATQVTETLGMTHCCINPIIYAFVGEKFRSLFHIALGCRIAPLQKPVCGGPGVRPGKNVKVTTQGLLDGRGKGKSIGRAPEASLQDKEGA
- Assay type: cell membranes, CHO-K1, Membrane
- Run Parameters: read-out: IC50
Measured Attribute: IC50 (nM)
Just the number in nM, nothing appended.

CCN(CC)C(=S)SSC(=S)N(CC)CC    2470

The compound c1ccc2sc(SSc3nc4ccccc4s3)nc2c1 [BENZOTHIAZYL DISULFIDE] showed IC50 equal to 2410
